biological target: Retinaldehyde dehydrogenase 3 (Homo sapiens); test: Activation of recombinant human ALDH1A3 using propionaldehyde as substrate at 20 uM preincubated for 2 mins with NAD+ followed by substrate addition by UV-Vis spectrophotometric analysis
measured-metric: Activity

Example results:
compound	Activity
Cn1c(=O)c2c(nc(N3CCOCC3)n2Cc2ccccc2F)n(C)c1=O	< 10%
CCCCn1c(CN2CCN(c3ccc(OC)cc3)CC2)nc2c1c(=O)n(C)c(=O)n2C	< 10%
Cn1c(=O)c2c(nc(CN3CCC(C(N)=O)CC3)n2CCCc2ccccc2)n(C)c1=O	< 10%
CCC1CCCCN1Cc1nc2c(c(=O)n(C)c(=O)n2C)n1Cc1cccc(C)c1 (configuration not stated)	< 10%
CC(C)CCn1c(CN2CCOCC2)nc2c1c(=O)n(C)c(=O)n2C	< 10%

IN: So what does the record say about Activity for Cc1ccc(Cn2c(CN3CCN(c4ccccc4)CC3)nc3c2c(=O)n(C)c(=O)n3C)cc1 ?
OUT: < 10%

IN: One more compound: CC(C)CCn1c(CN(C)Cc2ccccc2)nc2c1c(=O)n(C)c(=O)n2C
OUT: < 10%
